The measurements presented in this section are drawn from PubChem BioAssay.

# assay comment: PSAC antagonists in infected red cells, primary screen, cell-based, P. falciparum Indochina, OD700, 2 h (AID 1155);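 further: lysis reports solute entry through the parasite surface anion channel PSAC; channel blockers reduce lysis of infected cells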
# assay setup: P. falciparum Indochina infected erythrocytes, osmotic lysis OD700; higher = more signal, called active from +8 up or from −8 down
endpoint label: z-score
A bare number is all that is needed in reply.

{"columns": ["compound", "z-score"],
 "data": [
  ["COC(=O)c1c(CC[C@@H](CO)NC(=O)N[C@H](Cn2cc(Cc3ccccc3)nn2)C(C)C)oc(C(C)=O)c1C(=O)OC", -0.452],
  ["COCCOC(=O)N1C(=O)[C@@]2(c3cc(C#CCCO)ccc31)[C@H](C(=O)N1CCc3cc(OC)c(OC)cc3C1)[C@H]1C(=O)O[C@H](c3ccccc3)[C@H](c3ccccc3)N1[C@@H]2c1ccc(O)cc1", 0.349],
  ["C=CCOC(=O)[C@H]1[C@@H]2C(=O)O[C@@H](c3ccccc3)[C@@H](c3ccccc3)N2[C@@H](c2ccc(OCCOC(=O)[C@H]3C[C@H]4C(=O)N5CCC[C@H]5C(=O)N4[C@H]3c3ccc(O)cc3)cc2)[C@]12C(=O)Nc1ccccc12", 1.25],
  ["O=C(O)[C@@]1(CCS(=O)(=O)c2ccccc2)COC(c2ccc(OCCCO)cc2)=N1", -0.783],
  ["Cc1ccc(S[C@]2(C(=O)NCC(C)C)CC(=O)N(Cc3cc(C(F)(F)F)cc(C(F)(F)F)c3)[C@@H]2c2ccc(CO)cc2I)cc1", -0.449],
  ["CC(=O)NCCCC[C@@H]1NC(=O)[C@@H]2C[C@H](C(=O)NCCCCCCNC(=O)CS)[C@H](c3cccc(OCCO)c3)N2C1=O", 0.642]
]}

What value of z-score has been recorded for this entry: COc1cc(OC)c(C(O)C2C=CC3C(=O)NC(=O)C3N2Nc2ccc(Cl)cc2Cl)cc1Br (configuration not stated) 1.4

What value of z-score has been recorded for this entry: O=C1O[C@H](c2ccccc2)[C@H](c2ccccc2)N2[C@H]1[C@@H](C(=O)N1CCN(c3ncccn3)CC1)[C@]1(C(=O)Nc3ccc(C#CC4=CCCCC4)cc31)[C@H]2c1ccc(O)cc1 0.574

What value of z-score has been recorded for this entry: O=C1[C@H]2C=C(Br)[C@H](C[C@@H]2OCCCCO)[C@@]12CO2 0.317

What value of z-score has been recorded for this entry: COc1ccc(C(=O)Nc2ccc(CN3C(=O)[C@@]4(O[C@@H](CCn5cc([C@H](O)c6ccccc6)nn5)[C@H]([Si](C)(C)c5ccc(OC)cc5)[C@H]4C)c4ccccc43)cc2)cc1 5.6

What value of z-score has been recorded for this entry: COC(=O)[C@@]1(Cc2ccc(F)cc2)[C@H]2c3cc(C(=O)N4CCCC4)n(Cc4cc(C)n(C)n4)c3C[C@H]2CN1C(=O)c1ccccc1 0.0953

What value of z-score has been recorded for this entry: C=C(CCCC)/C(=C/C[C@@H](OC(C)=O)c1ccccc1OCCO)c1cnc2ccccc2c1 4.29

What value of z-score has been recorded for this entry: C=CCOC(=O)[C@H]1[C@@H]2C(=O)O[C@@H](c3ccccc3)[C@@H](c3ccccc3)N2[C@@H](c2ccc(OCCOC(=O)[C@@H]3C[C@@H]4C(=O)N[C@@H](CCCCN(C)C)C(=O)N4[C@@H]3c3ccc(O)cc3)cc2)[C@]12C(=O)Nc1ccc(I)cc12 1.39

What value of z-score has been recorded for this entry: CC(C)(C)OC(=O)CC[C@]1(C(=O)NCC(O)CO)COC(c2ccc(OCCCO)cc2)=N1 (some centres not stated) 0.645

====

# assay comment: CREB reporter modulators without forskolin, primary screen, cell-based, PC12, CRE-LacZ reporter, unstimulated (AID 1145)
# assay setup: no forskolin, luminescence, 4.5 h, higher = more signal, called active from +8 up or from −8 down
endpoint label: z-score
A bare number is all that is needed in reply.

{"columns": ["molecule", "z-score"],
 "data": [
  ["O=C1c2ccccc2[C@](Cc2ccccc2I)(C(=O)NC2CC2)[C@H](c2ccc(CO)cc2)N1Cc1ccccc1", -0.179],
  ["COc1ccc(CCNC(=O)[C@@H]2c3ccccc3C(=O)N(C3Cc4ccccc4C3)[C@H]2c2ccc(CO)cc2)cc1", -0.0888],
  ["Cc1ccc(C(C)CC(O)C2C=CC3C(=O)N(C)C(=O)C3N2NC(=O)OC(C)(C)C)o1 (centres undefined)", 0.0569]
]}

Please examine the following record next.
What value of z-score has been recorded for this entry: Cc1ccc(S[C@]2(C(=O)NCCN3CCOCC3)CC(=O)N(Cc3ccccc3Cl)[C@@H]2c2ccc(CO)cc2)cc1 0.441

====

Parameter: composite z-score. Scope: all listed entries.
# Tested on: Chordin-like protein 2 (CHRDL2)
# assay comment: CHRDL2 small-molecule binders, primary screen, biochemical, small-molecule microarray, 635 nm fluorescence (AID 1126);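 further: printed compound slides probed with Chrdl2 protein at 4 µg/mL for 1 h at 4 C; score merges 667 nm emission intensity with signal to noise over three replicate slides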
# assay setup: small-molecule microarray binding, fluorescence 635 nm; higher = more signal

Known composite z-score results, listed for orientation:
{"columns": ["input smiles", "composite z-score"],
 "data": [
  ["COc1ccc([C@H]2C[C@H]3C(Br)=C[C@@H]2C(=O)[C@]32CO2)cc1", 0.736],
  ["CCOC(=O)C=Cc1cc([N+](=O)[O-])ccc1O", -1.26],
  ["COCCOC(=O)N1C(=O)[C@@]2(c3cc(C#CCCO)ccc31)[C@H](C(=O)Nc1nc3ccccc3s1)[C@H]1C(=O)O[C@H](c3ccccc3)[C@H](c3ccccc3)N1[C@@H]2c1ccc(OCCO)cc1", 0.387],
  ["COCCOC(=O)N1C(=O)[C@@]2(c3cc(C#CCCO)ccc31)[C@H](C(=O)N1CCN(c3ncccn3)CC1)[C@H]1C(=O)O[C@H](c3ccccc3)[C@H](c3ccccc3)N1[C@@H]2c1ccccc1OCCO", 0.207],
  ["COc1ccc(CCNC(=O)[C@@H]2c3ccccc3C(=O)N(C3Cc4ccccc4C3)[C@H]2c2ccc(CO)cc2)cc1", -0.551],
  ["COc1ccc(C(=O)Nc2ccc(CN3C(=O)[C@@]4(O[C@@H](CCO)[C@H]([Si](C)(C)c5ccc(OC)cc5)[C@H]4C)c4ccccc43)cc2)cc1", 0.959]
]}

Please examine the following record next.
What value of composite z-score has been recorded for this entry: C=CCNC(=O)[C@H]1[C@@H]2C(=O)O[C@@H](c3ccccc3)[C@@H](c3ccccc3)N2[C@@H](c2ccccc2OCCO)[C@]12C(=O)Nc1ccc(C#CC3=CCCCC3)cc12 0.495

====

# target desc: Fibroblast growth factor 2 (Homo sapiens) (UniProt P09038)
# Sequence (P09038 whole entry, looked up): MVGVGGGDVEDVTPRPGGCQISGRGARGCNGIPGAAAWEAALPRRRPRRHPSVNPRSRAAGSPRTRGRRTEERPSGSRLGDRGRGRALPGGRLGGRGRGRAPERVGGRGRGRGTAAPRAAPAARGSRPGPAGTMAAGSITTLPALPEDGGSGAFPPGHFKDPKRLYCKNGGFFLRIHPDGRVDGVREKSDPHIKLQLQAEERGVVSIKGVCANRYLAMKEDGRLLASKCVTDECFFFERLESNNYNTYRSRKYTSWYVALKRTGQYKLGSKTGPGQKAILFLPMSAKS
# assay comment: FGF2 binders on small-molecule microarrays, primary screen, biochemical, small-molecule microarray, 635/667 nm fluorescence (AID 1133)
# assay setup: small-molecule microarray binding, FGF2, fluorescence 635/667; higher = more signal
Label 1 when composite z-score >= 0.3; otherwise -1.

{"columns": ["compound", "answer label"],
 "data": [
  ["C=C(CCCC)C(=O)CC[C@H](OC(C)=O)c1cccc(OCCO)c1", -1],
  ["CCOC(=O)C[C@H]1[C@H](OC(=O)c2cc3ccccc3oc2=O)[C@@H](NC(=O)Cc2ccc(OC)cc2)c2cc(OCCCO)ccc2N1C(=O)c1ccccc1", 1],
  ["COC(=O)[C@@]1(Cc2ccc(OC)cc2)[C@H]2c3cc(C(=O)N4CCCC4)n(Cc4ccccc4)c3C[C@H]2CN1C(=O)c1ccccc1", -1]
]}

Item C[N+](C)(C)CCCCNC(=O)[C@H]1C[C@H]2C(=O)N[C@@H](Cc3ccccc3)C(=O)N2[C@H]1c1ccc(O)cc1 with composite z-score of 0.3 or above? 1

Item [N-]=[N+]=Nc1ccccc1C[C@@]1(C(=O)NCCN2CCOCC2)N=C(c2ccc(OCCCO)cc2)O[C@@H]1c1ccccc1 with composite z-score of 0.3 or above? 1

Item C=CCOC(=O)[C@H]1[C@@H]2C(=O)O[C@@H](c3ccccc3)[C@@H](c3ccccc3)N2[C@@H](c2ccc(OCCOC(=O)[C@@H]3C[C@@H]4C(=O)N[C@@H](CCCC[N+](C)(C)C)C(=O)N4[C@@H]3c3ccc(O)cc3)cc2)[C@]12C(=O)Nc1ccccc12 with composite z-score of 0.3 or above? 1

Item [N-]=[N+]=Nc1ccccc1[C@H]1OC(c2ccc(OCCCO)cc2)=N[C@@]1(Cc1ccccc1)C(=O)O with composite z-score of 0.3 or above? -1

Item CN1C(=O)C2C=CC(C(O)C3=C[C@H]4C[C@@H](C3)C4(C)C)N(Nc3ccccc3)C2C1=O (stereo not given in full) with composite z-score of 0.3 or above? -1

Item Cc1ccc(C(C)CC(O)C2C=CC3C(=O)N(c4ccccc4)C(=O)C3N2Nc2ccc([N+](=O)[O-])cc2)o1 (stereo not given) with composite z-score of 0.3 or above? -1

Item COC(=O)c1c(CC[C@@H](CO)NC(=O)N2CCC[C@H]2Cn2cc(-c3ccccn3)nn2)oc(C(C)=O)c1C(=O)OC with composite z-score of 0.3 or above? -1

Item NCCCCCNC(=O)[C@@H]1C[C@@H]2C(=O)NCC(=O)N2[C@@H]1c1ccc(O)cc1 with composite z-score of 0.3 or above? 1

Item CN(C)CCCNC(=O)[C@@]1(C)c2ccccc2C(=O)N(Cc2cc(F)cc(C(F)(F)F)c2)[C@H]1c1ccc(CO)cc1 with composite z-score of 0.3 or above? -1
